Where these numbers come from: patent US9957261B2

Please provide measured log10(Ki) for the entries that follow.
Target: mouse TAAR1 (Mus musculus (Mouse), UniProt Q923Y8)
Sequence (Q923Y8 whole entry): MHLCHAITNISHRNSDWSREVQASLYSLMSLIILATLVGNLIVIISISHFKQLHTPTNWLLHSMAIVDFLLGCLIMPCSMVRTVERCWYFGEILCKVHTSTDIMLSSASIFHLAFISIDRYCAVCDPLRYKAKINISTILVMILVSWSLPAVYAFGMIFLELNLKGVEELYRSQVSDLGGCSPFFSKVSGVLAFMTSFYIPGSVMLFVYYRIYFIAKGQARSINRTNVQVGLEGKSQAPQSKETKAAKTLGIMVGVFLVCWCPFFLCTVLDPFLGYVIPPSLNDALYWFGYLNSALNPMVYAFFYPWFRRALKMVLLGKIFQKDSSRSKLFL
Test: Radioligand binding assay on mouse TAAR1
Details: mouse TAAR1, membranes of stably transfected HEK-293 cells; first value of mouse/rat pair
Please be aware that the numbers have been log10-transformed from Ki in µM.

Use these answered entries as a reference point.
- N[C@@H]1CCc2cc(NC(=O)c3ccc(Cl)cc3)ccc2C1: -2.04
- Cc1cc(C(=O)Nc2ccc3c(c2)CC[C@H](N)C3)ccn1: -0.95
- Cc1cc(C(=O)Nc2ccc3c(c2)OCC(N)C3)nc(C(F)(F)F)n1 (centres unmarked): -1.09
- N[C@H]1CCc2cc(NC(=O)Nc3ccc(Cl)cc3)ccc2C1: -3.00

Pending compound:
Sample "N[C@H]1COc2cc(NC(=O)c3nccc(Cl)n3)ccc2C1" — what was its log10(Ki)?
-0.76

====

Please provide measured Ki for the entries that follow.
Molecular target: mouse TAAR1 (Mus musculus (Mouse), UniProt Q923Y8)
Experiment: Radioligand binding assay on mouse TAAR1
Conditions: mouse TAAR1, membranes of stably transfected HEK-293 cells; first value of mouse/rat pair
Procedure: Construction of TAAR Expression Plasmids and Stably Transfected Cell Lines For the construction of expression plasmids the coding sequences of human, rat and mouse TAAR 1 were amplified from genomic DNA essentially as described by Lindemann et al.. The Expand High Fidelity PCR System (Roche Diagnostics) was used with 1.5 mM Mg^2+ and purified PCR products were cloned into pCR2.1-TOPO cloning vector (Invitrogen) following the instructions of the manufacturer. […]
Numbers only, in µM.

List Ki for every entry below, keeping the order given.
1. N[C@H]1CCc2cc(NC(=O)c3ccc4ccccc4c3)ccc2C1
2. CCCc1cc(C(=O)Nc2ccc3c(c2)OCC(N)C3)nn1CC(F)F (stereo not drawn)
3. Cc1cc(C(=O)Nc2ccc3c(c2)CC[C@H](N)C3)nc(C(F)(F)F)n1
4. CCc1ccc(Nc2ccc3c(c2)CC[C@H](N)C3)cc1

0.0006
0.0198
0.0318
0.006

====

Molecular target: mouse TAAR1 (Mus musculus (Mouse), UniProt Q923Y8)
Assay: Radioligand binding assay on mouse TAAR1
Conditions: mouse TAAR1, membranes of stably transfected HEK-293 cells; first value of mouse/rat pair
Please provide measured Ki for the entries that follow.

Use these answered entries as a reference point.
* N[C@H]1CCc2cc(NC(=O)NCc3ccc(Cl)cc3)ccc2C1 | 0.0029 µM
* N[C@H]1CCc2cc(NC(=O)Nc3ccc(C(F)(F)F)cc3)ccc2C1 | 0.0011 µM
* N[C@H]1CCc2cc(NC(=O)Nc3ccc(C(F)(F)F)nc3)ccc2C1 | 0.0045 µM
* N[C@H]1CCc2cc(NC(=O)NCc3cccc(OC(F)(F)F)c3)ccc2C1 | 0.002 µM
* N[C@H]1CCc2cc(NC(=O)c3[nH]nc(-c4ccc(Cl)o4)c3Cl)ccc2C1 | 0.0007 µM
* N[C@H]1COc2cc(NC(=O)c3ccnc(C(F)(F)F)c3)ccc2C1 | 0.0091 µM
* N[C@H]1CCc2cc(NC(=O)Nc3ccc(C4CC4)cc3)ccc2C1 | 0.001 µM
* Cc1cc(C(=O)Nc2ccc3c(c2)OC[C@H](N)C3)cc(Cl)n1 | 0.0088 µM
* N[C@H]1CCc2cc(NCc3ccc(Cl)cc3)ccc2C1 | 0.0048 µM
* Cn1nc(C(=O)Nc2ccc3c(c2)OC[C@H](N)C3)cc1-c1cccs1 | 0.0009 µM

List Ki for every entry below, keeping the order given.
1. N[C@H]1COc2cc(NC(=O)c3ccc(F)c(F)c3)ccc2C1
2. CCn1nc(C(=O)Nc2ccc3c(c2)OC[C@H](N)C3)c(Br)c1OCC(F)F
3. NC1CCc2cc(NC(=O)c3ccnc(C(F)(F)F)c3)ccc2C1 (centres unmarked)
4. COc1ccc(C(=O)Nc2ccc3c(c2)CC[C@H](N)C3)cn1
5. Cc1cc(C(=O)Nc2ccc3c(c2)OC[C@@H](N)C3)nc(C(F)(F)F)n1
6. Cc1onc(C(=O)Nc2ccc3c(c2)CC[C@H](N)C3)c1Cl

["0.0009 µM", "0.0151 µM", "0.0159 µM", "0.0344 µM", "1.45 µM", "0.0049 µM"]

List Ki for every entry below, keeping the order given.
1. N[C@H]1CCc2cc(NC(=O)c3cnn(-c4ccc(Cl)c(Cl)c4)c3)ccc2C1
2. N[C@H]1CCc2cc(NC(=O)c3cnn(-c4ccc(OC(F)(F)F)cc4)c3)ccc2C1
3. N[C@H]1COc2cc(NC(=O)c3cc(Cl)nc(Cl)c3)ccc2C1
4. N[C@H]1CCc2cc(Nc3ccc(F)cc3)ccc2C1
5. CCc1ccc(NC(=O)c2ccc3c(c2)CCC(N)C3)cc1 (centres unmarked)
6. NC1CCc2cc(C(=O)Nc3ccc(C(F)(F)F)cc3)ccc2C1 (centres unmarked)
7. N[C@H]1CCc2cc(C(=O)Nc3cccc(OC(F)(F)F)c3)ccc2C1
8. N[C@H]1CCc2cc(NC(=O)c3cnc(Cl)c(Cl)c3)ccc2C1

["0.0007 µM", "0.0012 µM", "0.0035 µM", "0.171 µM", "0.0155 µM", "0.0054 µM", "0.0008 µM", "0.0031 µM"]

List Ki for every entry below, keeping the order given.
1. NC1CCc2cc(C(=O)Nc3ccc(C4CC4)cc3)ccc2C1 (centres unmarked)
2. N[C@H]1CCc2cc(NC(=O)c3cc(Cl)nc(Cl)c3)ccc2C1
3. NC1CCc2cc(NC(=O)c3n[nH]c(C4CC4)c3Br)ccc2C1 (centres unmarked)
4. N[C@H]1CCc2cc(Nc3ccc(C(F)(F)F)cn3)ccc2C1
5. N[C@H]1CCc2cc(NC(=O)c3cccnc3F)ccc2C1

0.0096 µM
0.0042 µM
0.0077 µM
0.0032 µM
0.476 µM
